# SYSTEM: UniProt:P0DTD1
# ASSAY CONTEXT: 50.0 µM
MEASURED PARAMETER: inhibition (%)
Number only, in %; omit the unit.

C=CC(=O)N(c1ccc(C(C)(C)C)cc1)C(C(=O)Nc1ccc(OC)nc1)c1cccnc1 (configuration not stated) ... 0
O=C(C(F)Cl)N1CCCC(c2nc3ccccc3s2)C1 (configuration not stated) ... 0
N#Cc1cccc(CN2C(=O)C(=O)c3cccc(Br)c32)c1 ... 91.2
Cc1ccncc1NC(=O)CC(C)(C)NC(=O)c1cccc2[nH]ccc12 ... 0
O=C(Cc1c[nH]c2ncccc12)N(Cc1c(F)cccc1Cl)c1ccc2[nH]c(=O)[nH]c2c1 ... 12.4
Cc1cc2c(cc1C)[C@H](C(=O)Nc1cncnc1-n1cccn1)CO2 (stereo in doubt) ... 0
COc1ccccc1OC1CCCN(C(=O)c2cc(=O)[nH]c3ccc(Cl)cc23)C1 (configuration not stated) ... 0
Cc1ccncc1NC(=O)Cc1cccc(CO)c1 ... 1.14
O=S(=O)(Cc1nc(-c2ccncc2)no1)Nc1ccc(N2CCCCC2)cc1 ... 0
CC(NC(=O)Nc1cccc(N2CCCCC2=O)c1)c1ccn[nH]1 (configuration not stated) ... 0

Enter reported inhibition observed with UniProt:P0DTD1 for Cc1cc(C)cc(NC(=O)Cn2cncc2C)c1
0

Enter reported inhibition observed with UniProt:P0DTD1 for CCCN(CC1COc2ccccc2O1)C(=O)c1cc(=O)[nH]c2cc(F)ccc12 (configuration not stated)
0

Enter reported inhibition observed with UniProt:P0DTD1 for C=CC(=O)N(c1ccc(C(C)(C)C)cc1)C(C(=O)NCc1ccc(F)cc1)c1cccnc1 (configuration not stated)
100

Enter reported inhibition observed with UniProt:P0DTD1 for Cc1ccncc1NC(=O)Cc1cccc(I)c1
64.3

Enter reported inhibition observed with UniProt:P0DTD1 for O=C(NCc1cccnn1)Nc1cccc(-c2ncc3n2CCCC3)c1
0

Enter reported inhibition observed with UniProt:P0DTD1 for O=C(c1cc(=O)[nH]c2ccc(Cl)cc12)N1CCN(S(=O)(=O)c2ccccc2F)CC1
17.1

Enter reported inhibition observed with UniProt:P0DTD1 for C=CC(=O)N(c1ccc(C(C)(C)C)cc1)C(C(=O)NCc1ccccc1)c1cccnc1 (configuration not stated)
100

Enter reported inhibition observed with UniProt:P0DTD1 for C#CCN1CCN(C(=O)CCl)CC1
7.12

Enter reported inhibition observed with UniProt:P0DTD1 for Cc1ccncc1NC(=O)CCc1ccn[nH]1
-1.76

Enter reported inhibition observed with UniProt:P0DTD1 for N#Cc1ccc(S(=O)(=O)N2CCN(C(=O)c3cc(=O)[nH]c4cc(F)ccc34)CC2)cc1
0.23

Enter reported inhibition observed with UniProt:P0DTD1 for COc1ncccc1N(C)C(=O)C1CCOc2ccc(Cl)cc21 (configuration not stated)
0

Enter reported inhibition observed with UniProt:P0DTD1 for CC(C)(O)CC1C2=C(Oc3c1c1c(c4ccccc34)OC(C)(C)C=C1)C(=O)c1ccccc1C2=O (configuration not stated)
3.92

Taken from the COVID Moonshot data (paper PMC11187573).
